B1: Tryptophan synthase alpha chain, P0A877 (parent)
chain: MERYESLFAQLKERKEGAFVPFVTLGDPGIEQSLKIIDTLIEAGADALELGIPFSDPLADGPTIQNATLRAFAAGVTPAQCFEMLALIRQKHPTIPIGLLMYANLVFNKGIDEFYAQCEKVGVDSVLVADVPVEESAPFRQAALRHNVAPIFICPPNADDDLLRQIASYGRGYTYLLSRAGVTGAENRAALPLNHLVAKLKEYNAAPPLQGFGISAPDQVKAAIDAGAAGAISGSAIVKIIEQHINEPEKMLAALKVFVQPMKAATRS

# Variants of: B1
# condition_description: Escherichia coli (strain K12); pH 9; 25 °C; GdnHCl; CD; Tris-HCl 0.025 M; reversible: yes; structure 1WQ5; whole UniProt chain shown
Mark not satisfied for ddG of mutation (higher = less stable) values under -3 kcal/mol, and satisfied for everything at or above.

Inquiry: Say whether E49Q shows ddG of mutation (higher = less stable) of -3 kcal/mol or more.
Reply text: not satisfied

Inquiry: Please answer likewise for E49M
Reply text: not satisfied

Inquiry: Please answer likewise for E49S
Reply text: not satisfied

Inquiry: Please answer likewise for E49V
Reply text: not satisfied

Inquiry: Please answer likewise for E49Y
Reply text: satisfied
